Recorded measurements of composite z-score, one per entry
# experimentalSystem: Dihydroorotate dehydrogenase (quinone), mitochondrial (Plasmodium falciparum (isolate 3D7)) (UniProt Q08210)
# Sequence (Q08210 whole entry, looked up): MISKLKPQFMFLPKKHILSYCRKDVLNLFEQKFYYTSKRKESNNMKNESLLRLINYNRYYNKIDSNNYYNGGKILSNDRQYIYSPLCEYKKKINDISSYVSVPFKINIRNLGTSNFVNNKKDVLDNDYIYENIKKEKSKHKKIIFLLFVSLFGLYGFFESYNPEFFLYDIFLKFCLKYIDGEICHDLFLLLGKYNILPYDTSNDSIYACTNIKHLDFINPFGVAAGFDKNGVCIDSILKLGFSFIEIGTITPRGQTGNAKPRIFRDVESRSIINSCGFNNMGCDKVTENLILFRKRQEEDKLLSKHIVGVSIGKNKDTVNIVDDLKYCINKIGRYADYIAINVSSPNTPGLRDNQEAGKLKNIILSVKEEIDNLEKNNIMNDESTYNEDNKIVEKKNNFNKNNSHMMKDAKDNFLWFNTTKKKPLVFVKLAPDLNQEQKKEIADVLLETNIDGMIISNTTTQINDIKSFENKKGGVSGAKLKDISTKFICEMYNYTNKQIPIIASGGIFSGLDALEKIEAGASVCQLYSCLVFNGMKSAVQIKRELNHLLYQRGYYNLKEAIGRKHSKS
# assayOverview: PfDHODH enzyme inhibitors, primary screen, biochemical, C-terminal His tag, absorbance 600 nm (AID 1175);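 note: recombinant parasite enzyme with a five histidine tag at its C terminus; test concentration not given here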
# protocolConditions: DCIP absorbance 600 nm, higher = more signal, called active from +8 up or from −8 down
measurementName: composite z-score

compound: CN(C)CCCC[C@@H]1NC(=O)[C@@H]2C[C@H](C(=O)O)[C@H](c3cccc(OCCO)c3)N2C1=O
valueReported: -0.126
//
compound: C=C(C(=O)CC[C@@H](OC(=O)c1ccccc1-c1ccccc1C(=O)O)c1ccccc1OCCO)C(C)C
valueReported: -1.52
//
compound: CC(C)=CCCC(C)=CC(O)C1C=CC2C(=O)N(c3ccccc3)C(=O)C2N1Nc1ccccc1F (centres undefined)
valueReported: -0.323
//
compound: O=C1C[C@@](C(=O)NCC(F)(F)F)(c2ccc([N+](=O)[O-])cc2)[C@@H](c2ccc(CO)cc2)N1CC12CC3CC(CC(C3)C1)C2
valueReported: 0.042
//
compound: C=C(/C(=C/C[C@@H](OC(C)=O)c1ccc(CO)o1)c1cc(C(=O)OC)ccc1OC)C(C)C
valueReported: -0.805
//
compound: COCCOC(=O)N1C(=O)[C@@]2(c3cc(C#CCCO)ccc31)[C@H](C(=O)N1CCCCCCC1)[C@H]1C(=O)O[C@H](c3ccccc3)[C@H](c3ccccc3)N1[C@@H]2c1ccccc1OCCO
valueReported: -0.0989
//
compound: O=C(O)[C@@H]1C[C@@H]2C(=O)N3CCC[C@H]3C(=O)N2[C@@H]1c1cccc(OCCO)c1
valueReported: -0.899
//
compound: C=CCC(OC(C)=O)[C@@H]1[C@@H](N(Cc2cccc3ccccc23)C(=O)c2cccc3ccccc23)c2cc(OCCCO)ccc2N1C(=O)c1ccc2ccccc2c1 (some centres undefined)
valueReported: -0.29
//
compound: C=C[C@@H](C)[C@H](O)c1ccc(OCCO)cc1
valueReported: -0.445
//
compound: Nc1cc(Br)ccc1C(=O)O
valueReported: -0.627
//
compound: [N-]=[N+]=NCc1ccccc1[C@H]1OC(c2ccc(OCCCO)cc2)=N[C@@]1(CCS(=O)(=O)c1ccccc1)C(=O)NCc1ccccc1
valueReported: 0.786
//
compound: [N-]=[N+]=Nc1ccccc1C[C@]1(C(=O)O)N=C(c2ccc(OCCCO)cc2)O[C@H]1c1ccccc1
valueReported: 0.502
//
compound: COC(=O)[C@@]1(Cc2ccc(F)cc2)[C@H]2c3cc(C(=O)N(C)C)n(Cc4ccc(O)c(OC)c4)c3C[C@H]2CN1C(=O)c1ccccc1
valueReported: -0.764
//
compound: COC(=O)C(CC#Cc1ccc2c(c1)[C@]1(C(=O)N2)[C@H](c2ccc(O)cc2)N2[C@H](c3ccccc3)[C@H](c3ccccc3)OC(=O)[C@H]2[C@@H]1C(=O)N1CCCCCCC1)C(=O)OC
valueReported: -7.28
//
compound: COC(=O)[C@@]1(Cc2ccc(OC)cc2)[C@H]2c3cc(C(=O)N4CCCC4)n(Cc4ccc(S(C)(=O)=O)cc4)c3C[C@H]2CN1C(=O)c1ccccc1
valueReported: -1.16
//
compound: C=C(/C(=C/C[C@H](OC(=O)c1ccncc1)c1ccccc1OCCO)c1cnc2ccccc2c1)C(C)C
valueReported: -3.77
//
compound: CCOC(=O)C1=C[C@@H](C(C)(C)C)N(S(=O)(=O)c2ccc(C)cc2)[C@H]1c1ccc(C)cc1
valueReported: -0.186
//
compound: CCOC(=O)C1=CCN(S(=O)(=O)c2ccc(C)cc2)C1c1ccccc1 (centres undefined)
valueReported: -0.551
//
compound: CCOC(=O)C[C@H]1[C@H](OC(=O)c2ccc(C(=O)c3ccccc3)cc2)[C@@H](NC(=O)CC(C)C)c2cc(OCCCO)ccc2N1C(=O)Cc1ccc(OC)cc1
valueReported: 0.166
//
compound: C=CCC(OC(C)=O)[C@@H]1[C@@H](N(Cc2cccc3ccccc23)C(=O)Cc2ccc(F)cc2)c2cc(OCCCO)ccc2N1C(=O)c1ccc(-c2ccccc2)cc1 (some centres undefined)
valueReported: 0.366
//
compound: O=C(CS)NCCCCCCNC(=O)[C@@H]1C[C@@H]2C(=O)NCC(=O)N2[C@@H]1c1ccc(O)cc1
valueReported: -0.757
//
compound: CC(CO)N1C(=O)[C@@H]2[C@H]3C(=O)OCC=C[C@H]3OC23C=CCN(c2ccc(Cl)cc2)C(=O)[C@@H]13 (some centres undefined)
valueReported: -0.647
//
compound: COc1ccc([Si](C)(C)[C@H]2[C@H](CCO)O[C@@]3(C(=O)N(Cc4ccccc4)c4ccc(N5CCOC5=O)cc43)[C@@H]2C)cc1
valueReported: 0.0738
//
compound: COCCOC(=O)N1C(=O)[C@@]2(c3cc(C#CCC(C(=O)OC)C(=O)OC)ccc31)[C@H](C(=O)NC[C@H](O)c1ccccc1)[C@H]1C(=O)O[C@H](c3ccccc3)[C@H](c3ccccc3)N1[C@@H]2c1ccc(OCCO)cc1
valueReported: -0.429
//
compound: COCC1=C2[C@@H](CCc3ccccc3)OB(O)C[C@@H]2[C@@H]2C(=O)N(C)C(=O)[C@@H]2C1
valueReported: -0.173
//
compound: O=c1cccc(-c2ccco2)o1
valueReported: -1.85
//
compound: [N-]=[N+]=NCc1ccccc1[C@@H]1OC(c2ccc(OCCCO)cc2)=N[C@]1(Cc1ccccc1N=[N+]=[N-])C(=O)NCCN1CCOCC1
valueReported: -0.549
//
compound: COC(=O)[C@@]1(Cc2ccccc2CN=[N+]=[N-])N=C(c2ccc(OCCCO)cc2)O[C@H]1c1ccccc1CN=[N+]=[N-]
valueReported: 2.46
//
compound: O=C1OCCC/C=C\[C@H]2OC34C=CCN(c5ccc6ccccc6c5)C(=O)[C@H]3N(CCCO)C(=O)[C@@H]4C12 (some centres undefined)
valueReported: -0.818
